- System: RXF 393 renal
- assay-procedure: NCI tumour cell line growth inhibition, 48 h
attribute-measured: TGI

IN: Report value only: TGI, RXF 393 renal, Cc1ccc(S(=O)(=O)NC2C(=O)c3ccccc3C(=O)C2n2ccnc2)cc1 (centres undefined)
OUT: > 100 µM

IN: Enter recorded TGI with RXF 393 renal for `O=S(=O)(O)c1cc(N=Nc2c(O)ccc3ccccc23)c2c(S(=O)(=O)O)cccc2c1` here.
OUT: > 100 µM

IN: Given COC(=O)C1CCC(NC(=O)c2csc([C@@H](C[C@H](C(C)C)N(C)C(=O)[C@@H](NC(=O)[C@H]3CCCCN3C)C(C)C)OC(C)=O)n2)CC1 (some centres undefined) , report its TGI on RXF 393 renal.
OUT: > 33.3 µM

IN: Give TGI for `O=C1C(=O)c2c(O)ccc(O)c2C(O)=C1Cl` tested on RXF 393 renal.
OUT: > 100 µM

IN: Recall the reported TGI of CN1C(=O)N(C)C2C1NN=c1s/c(=C\c3ccccc3F)c(=O)n12 (centres undefined) on RXF 393 renal and write it down.
OUT: 0.491 µM

IN: Specify TGI for `O=C(Nc1ccccc1)c1cc(S(=O)(=O)Nc2nc3ncccc3[nH]2)c(SSc2cc(Cl)c(C(=O)Nc3ccccc3)cc2S(=O)(=O)Nc2nc3ncccc3[nH]2)cc1Cl` , system RXF 393 renal.
OUT: > 100 µM

IN: Write TGI of `CCOC(=O)c1sc2nc(SC)nc(N3CCCCC3)c2c1N` ; system used: RXF 393 renal
OUT: > 100 µM

IN: Look up RXF 393 renal data: TGI of `O=C1/C(=C/c2ccc(O)c(O)c2)COc2ccc(-c3ccccc3)cc21` , then report it.
OUT: 3.86 µM

IN: Write down the reported TGI (system: RXF 393 renal) of `CN(C)CCc1ccc(Cl)cc1Cl`
OUT: > 100 µM
